# protocol-summary: First-in-human clinical study: plasma and whole blood PK of INX-315 (oral QD, ASD tablet)
# Assay type: in vivo
# condition-description: human, plasma, po, 100 mg, plasma, 100 mg QD cohort, Day 15, individual subjects; read-out: t1/2 (converted)
measured-attribute: half-life (h)

molecule="NS(=O)(=O)c1ccc(Nc2ncc3cc4n(c3n2)C2(CCCCC2)C(=O)NN4)cc1 [INX-315]" experimental_result=17.6

----------
# protocol-summary: First-in-human clinical study: plasma and whole blood PK of INX-315 (oral QD, ASD tablet)
# Format: in vivo
# condition-description: human, whole blood, oral, 100 mg, whole blood, 100 mg QD, Day 15, Cohort 1 (Table 28); read-out: AUClast, median
measured-attribute: AUC(0-t) (ng·h/mL)

mol_smiles=NS(=O)(=O)c1ccc(Nc2ncc3cc4n(c3n2)C2(CCCCC2)C(=O)NN4)cc1 experimental_result=62700

----------
# protocol-summary: First-in-human clinical study: plasma and whole blood PK of INX-315 (oral QD, ASD tablet)
# Format: in vivo
# condition-description: human, plasma, oral, 200 mg, 200 mg QD (n = 2), 0.5 hr
# Description: All INX-315 tablets were taken at approximately the same time(s) each day. Samples will also be collected pre-dose on Cycle 1 Days 2, 8, 16, and Day 22, and pre-dose on Day 1 of each subsequent cycle. Standard non-compartmental PK parameters were estimated. […] PK parameters will be summarized descriptively by dosing cohort. […] Dose proportionality will be assessed for AUC and Cmax using a power model. […] Patients were upgraded to the 200 mg QD dose level and PK/PD plasma parameters were measured (FIG. 18A). […]
measured-attribute: concentration at 0.5 h (ng/mL)

mol_smiles=NS(=O)(=O)c1ccc(Nc2ncc3cc4n(c3n2)C2(CCCCC2)C(=O)NN4)cc1 measured_attribute="concentration at 0.5 h" value_unit=ng/mL experimental_result=69.6

----------
# protocol-summary: Aqueous solubility of INX-315
# Type: physicochemical
# condition-description: 1% SIF in PBS, fassgf or other biorelevant, 1% SIF in PBS; read-out: Total Drug Solubility
measured-attribute: solubility

molecule="NS(=O)(=O)c1ccc(Nc2ncc3cc4n(c3n2)C2(CCCCC2)C(=O)NN4)cc1 [INX-315]" measured_attribute=solubility experimental_result="0.0164 mg/mL"

----------
# protocol-summary: First-in-human clinical study: plasma and whole blood PK of INX-315 (oral QD, ASD tablet)
# Format: in vivo
# condition-description: human, plasma, oral, 100 mg, plasma, 100 mg QD, Day 15 observed, mean of first two patients; read-out: Cmax
measured-attribute: Cmax (ng/mL)

compound="NS(=O)(=O)c1ccc(Nc2ncc3cc4n(c3n2)C2(CCCCC2)C(=O)NN4)cc1 [INX-315]" measured_attribute=Cmax experimental_result=408

----------
# protocol-summary: First-in-human clinical study: plasma and whole blood PK of INX-315 (oral QD, ASD tablet)
# Format: in vivo
# condition-description: human, plasma, oral, 100 mg, 100 mg QD (n = 6), 8.0 hr
measured-attribute: concentration at 8 h

mol_smiles=NS(=O)(=O)c1ccc(Nc2ncc3cc4n(c3n2)C2(CCCCC2)C(=O)NN4)cc1 experimental_result="121 ng/mL"

----------
# protocol-summary: First-in-human clinical study: plasma and whole blood PK of INX-315 (oral QD, ASD tablet)
# Type: in vivo
# condition-description: human, plasma, oral, 300 mg, plasma, 300 mg QD cohort, Day 1, individual subjects; read-out: Tmax
measured-attribute: Tmax

mol_smiles=NS(=O)(=O)c1ccc(Nc2ncc3cc4n(c3n2)C2(CCCCC2)C(=O)NN4)cc1 experimental_result="8 h"

Where do the numbers come from? From patent US20260041640A1.
